Hey, just so you know, these numbers are from patent US20230356105A1.

Procedure Summary: Use of additives to improve separation of Nd/Dy mixture by precipitation with L5 (Example 18)
Assay type: physicochemical
Recorded Conditions: additive 10 mM; 11 mM L5
Rule: Precipitate concentration [mM] Dy below 2 mM gives Satisfied. Equal to or above 2 mM gives Not satisfied.

>>> df
                                   compound     class_name
0               C[C@H](O)C(=O)O [l-lactate]  Not satisfied
1  CC(C)(O)C(=O)O [α-HIBA, alpha-hydroxyisobutyric acid]      Satisfied
2      O=C(O)CC(O)(CC(=O)O)C(=O)O [citrate]  Not satisfied
3                      O=C(O)CO [glycolate]      Satisfied
4                              F [fluoride]  Not satisfied

---

Procedure Summary: Use of additives to improve separation of Nd/Dy mixture by precipitation with L5 (Example 18)
Format: physicochemical
Recorded Conditions: additive 5 mM; 11 mM L5
Parameter threshold = 4 mM. Response is true (1) when Precipitate concentration [mM] Dy meets or exceeds it, else false (0).

>>> df
                                   compound  class_name
0               C[C@H](O)C(=O)O [l-lactate]   false (0)
1                      O=C(O)CO [glycolate]   false (0)
2                              F [fluoride]    true (1)
3  CC(C)(O)C(=O)O [α-HIBA, alpha-hydroxyisobutyric acid]   false (0)
4      O=C(O)CC(O)(CC(=O)O)C(=O)O [citrate]   false (0)

---

Procedure Summary: Use of additives to improve separation of Nd/Dy mixture by precipitation with L5 (Example 18)
Format: physicochemical
Recorded Conditions: additive 200 mM; 11 mM L5
Below, each entry is listed alongside its reported Precipitate concentration [mM] Dy.
Recorded Metric: Precipitate concentration [mM] Dy (mM)

>>> df
                      compound  measured_number
0      O=[N+]([O-])O [nitrate]             3.89
1               O=C(O)c1ccccc1             0.53
2                Cl [chloride]             4.48
3                     NCC(=O)O             1.86
4  N#C[S-].[Na+] [thiocyanate]             4.42

---

Procedure Summary: Use of additives to improve separation of Nd/Dy mixture by precipitation with L5 (Example 18)
Type: physicochemical
Recorded Conditions: additive 10 mM; 11 mM L5
Recorded Metric: Supernatant concentration [mM] Dy (mM)

In [3]: df
Out[3]:
                                   compound  value_units  measured_number
0                      O=C(O)CO [glycolate]           mM             2.93
1      O=C(O)CC(O)(CC(=O)O)C(=O)O [citrate]           mM             2.27
2  CC(C)(O)C(=O)O [α-HIBA, alpha-hydroxyisobutyric acid]           mM             3.03
3               C[C@H](O)C(=O)O [l-lactate]           mM             2.47
4                              F [fluoride]           mM             2.34

---

Procedure Summary: Use of additives to improve separation of Nd/Dy mixture by precipitation with L5 (Example 18)
Format: physicochemical
Recorded Conditions: additive 20 mM; 11 mM L5
Overview of recorded Supernatant concentration [mM] Dy for various molecules
Recorded Metric: Supernatant concentration [mM] Dy

In [3]: df
Out[3]:
                                    molecule   result
 0                           O=C(O)c1ccccc1O  0.42 mM
 1                                  c1ccncc1  0.28 mM
 2                    O=C(O)c1cccc(C(=O)O)n1  4.29 mM
 3                            O=C(O)c1ccccc1  1.09 mM
 4               C[C@H](O)C(=O)O [l-lactate]  3.57 mM
 5                      O=C(O)CO [glycolate]  3.82 mM
 6                             OB(O)c1ccccc1  0.31 mM
 7                            O=C(O)c1ccccn1     5 mM
 8  CC(C)(O)C(=O)O [α-HIBA, alpha-hydroxyisobutyric acid]  3.69 mM
 9      O=C(O)CC(O)(CC(=O)O)C(=O)O [citrate]  3.52 mM
10                   O=C(O)[C@@H](O)c1ccccc1  3.77 mM

---

Procedure Summary: Use of additives to improve separation of Nd/Dy mixture by precipitation with L5 (Example 18)
Assay type: physicochemical
Recorded Conditions: additive 250 mM; 11 mM L5
Precipitate concentration [mM] Nd overview
Recorded Metric: Precipitate concentration [mM] Nd

>>> df
                compound   result
0               c1ccncc1  4.67 mM
1         O=CO [formate]  5.38 mM
2          OB(O)c1ccccc1  4.12 mM
3         O=C(O)c1ccccc1     0 mM
4  O=S(=O)(O)O [sulfate]  4.96 mM
5      CC(=O)O [acetate]  4.04 mM

---

Procedure Summary: Use of additives to improve separation of Nd/Dy mixture by precipitation with L5 (Example 18)
Type: physicochemical
Recorded Conditions: additive 500 mM; 11 mM L5
Overview of recorded Precipitate concentration [mM] Nd for various compounds
Recorded Metric: Precipitate concentration [mM] Nd (mM)

In [3]: df
Out[3]:
                      compound                    recorded_metric  measured_number
0               O=CO [formate]  Precipitate concentration [mM] Nd             4.93
1        O=S(=O)(O)O [sulfate]  Precipitate concentration [mM] Nd             4.30
2  N#C[S-].[Na+] [thiocyanate]  Precipitate concentration [mM] Nd             4.65
3      O=[N+]([O-])O [nitrate]  Precipitate concentration [mM] Nd             4.46
4                Cl [chloride]  Precipitate concentration [mM] Nd             4.39
5            CC(=O)O [acetate]  Precipitate concentration [mM] Nd             0.52

---

Procedure Summary: Use of additives to improve separation of Nd/Dy mixture by precipitation with L5 (Example 18)
Assay type: physicochemical
Recorded Conditions: additive 200 mM; 11 mM L5
Recorded Metric: Precipitate concentration [mM] Nd (mM)

In [3]: df
Out[3]:
                      molecule                    recorded_metric  measured_number
0  N#C[S-].[Na+] [thiocyanate]  Precipitate concentration [mM] Nd             4.60
1               O=C(O)c1ccccc1  Precipitate concentration [mM] Nd             1.65
2                Cl [chloride]  Precipitate concentration [mM] Nd             4.57
3                     NCC(=O)O  Precipitate concentration [mM] Nd             4.69
4      O=[N+]([O-])O [nitrate]  Precipitate concentration [mM] Nd             3.97

---

Procedure Summary: Use of additives to improve separation of Nd/Dy mixture by precipitation with L5 (Example 18)
Type: physicochemical
Recorded Conditions: additive 250 mM; 11 mM L5
Label TRUE when Precipitate concentration [mM] Dy is strictly below 3 mM; at or above that, label FALSE.

In [3]: df
Out[3]:
                compound  class_name
0      CC(=O)O [acetate]        TRUE
1               c1ccncc1       FALSE
2          OB(O)c1ccccc1       FALSE
3  O=S(=O)(O)O [sulfate]       FALSE
4         O=C(O)c1ccccc1        TRUE
5         O=CO [formate]       FALSE
